test: Pharmacokinetics in male Han Wistar rats, intravenous and oral; format: in vivo; details: male, Han Wistar, plasma; rat, PO, 1.0 mg/kg
readout_name: AUC(0-inf) (ng·h/mL)

[
  {
    "molecule": "Cc1cc(F)ccc1NC1CN(c2ncc(Cl)cc2C(=O)NC2(c3ccc(C(=O)O)cc3)CC2)C1",
    "unit": "ng·h/mL",
    "AUC(0-inf)": 128
  }
]

[a] Cc1cc(F)ccc1NC1CN(c2ncc(C(F)(F)F)cc2C(=O)NC2(c3ccc(C(=O)O)cc3)CC2)C1
[b] O=C(O)c1ccc(C2(NC(=O)c3cc(C(F)(F)F)cnc3N3CC(Oc4cccc(F)c4)C3)CC2)cc1
query: Sorting ascending by AUC(0-inf), which comes first: a or b ? Returns: label corresponding to the selected item.
result: a
(a: 231 ng·h/mL, b: 598 ng·h/mL)
